Reference source: paper PMC3653324

Each entry below lists one item and its recorded Total GSH TC50 value.
test system: Intracellular glutathione (GSH); test: CeeTox intracellular glutathione; settings: H4IIE cells

molecule	assayed_target	Total GSH TC50
Cc1ccc2oc(-c3ccc(O)c(O)c3)c(O)c(=O)c2c1 [CSMC-11, 6-methyl-3,3',4'-trihydroxy flavone]	Intracellular glutathione (GSH)	>300 µM
CCc1ccc2oc(-c3ccc(O)c(O)c3)c(O)c(=O)c2c1 [CSMC-9, 6-ethyl-3,3',4'-trihydroxy flavone]	Intracellular glutathione (GSH)	149 µM
CCOc1cc(-c2ccc(O)c(O)c2)nc2ccccc12	Intracellular glutathione (GSH)	243 µM

Now look at this entry.
Would you kindly share the measured Total GSH TC50 for O=c1c(O)c(-c2ccc(O)c(O)c2)oc2c1ccc1ccccc12 [CSMC-6, 3,3',4'-trihydroxy alpha-naphthoflavone] ?
87 µM

----------
target: CYP2D6 (Homo sapiens); experiment: Cloe Screen Cytochrome P450 Inhibition assay; type: in vitro ADME; conditions: read-out: CYP2D6 IC50; human liver microsomes; substrate DextroM
Sequence (P10635 whole entry): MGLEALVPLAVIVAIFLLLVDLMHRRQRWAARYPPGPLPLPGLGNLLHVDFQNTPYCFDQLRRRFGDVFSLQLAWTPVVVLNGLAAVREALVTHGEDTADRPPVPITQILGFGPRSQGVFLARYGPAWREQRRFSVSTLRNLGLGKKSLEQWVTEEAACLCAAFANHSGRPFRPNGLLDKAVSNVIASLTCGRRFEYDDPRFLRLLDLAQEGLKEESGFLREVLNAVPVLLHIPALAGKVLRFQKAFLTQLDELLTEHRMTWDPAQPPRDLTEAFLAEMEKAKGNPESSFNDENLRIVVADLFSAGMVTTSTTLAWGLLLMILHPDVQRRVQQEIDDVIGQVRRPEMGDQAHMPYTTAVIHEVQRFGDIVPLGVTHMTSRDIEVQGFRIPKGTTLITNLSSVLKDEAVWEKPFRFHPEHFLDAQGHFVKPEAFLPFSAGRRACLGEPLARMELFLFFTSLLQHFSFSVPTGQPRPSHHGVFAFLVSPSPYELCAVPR
experimental_endpoint: IC50

Would you kindly share the measured IC50 for O=c1c(O)c(-c2ccc(O)c(O)c2)oc2c1ccc1ccccc12 [CSMC-6, 3,3',4'-trihydroxy alpha-naphthoflavone] ?
> 10 µM

----------
Each entry below lists one item and its recorded MemTox TC50 value.
tested on: H4IIE cells; assay: CeeTox membrane toxicity; conditions: 24 hr, α-GST leakage

Worked examples, 8 compounds total:
compound	MemTox TC50
O=c1cc(-c2cc(O)c(O)c(O)c2)oc2ccccc12 [CSMC-19, 3',4',5'-trihydroxyflavone]	>300 µM
CCOc1cc(-c2ccc(O)c(O)c2)nc2ccccc12	>300 µM
CCCc1ccc2oc(-c3ccc(O)c(O)c3)c(O)c(=O)c2c1 [CSMC-13, 6-propyl-3,3',4'-trihydroxy flavone]	>300 µM
CC[C@@]1(O)C(=O)OCc2c1cc1n(c2=O)Cc2cc3ccccc3nc2-1 [CAMPTOTHECIN, camptothecin, reference compound]	>300 µM
CCc1ccc2oc(-c3ccc(O)c(O)c3)c(O)c(=O)c2c1 [CSMC-9, 6-ethyl-3,3',4'-trihydroxy flavone]	>300 µM
Cc1ccc2oc(-c3ccc(O)c(O)c3)c(O)c(=O)c2c1 [CSMC-11, 6-methyl-3,3',4'-trihydroxy flavone]	>300 µM
CC(C)Oc1cc(-c2ccc(O)c(O)c2)nc2ccccc12	>300 µM
O=c1c(O)c(-c2ccc(O)c(O)c2)oc2c1ccc1ccccc12 [CSMC-6, 3,3',4'-trihydroxy alpha-naphthoflavone]	282 µM

Would you kindly share the measured MemTox TC50 for "COc1cc(-c2ccc(O)c(O)c2)nc2ccccc12" ?
>300 µM

Would you kindly share the measured MemTox TC50 for C=C(C)[C@H]1Cc2c(ccc3c2O[C@@H]2COc4cc(OC)c(OC)cc4[C@@H]2C3=O)O1 [ROTENONE, rotenone, reference compound] ?
3.88 µM

Would you kindly share the measured MemTox TC50 for Cc1cc(O)c(C(=O)/C=C/c2ccc(O)c(O)c2)cc1C [CSMC-10, 4',5'-dimethyl-2',3,4-trihydroxychalcone] ?
>300 µM

Would you kindly share the measured MemTox TC50 for "COc1cc(-c2oc3cc(C)c(C)cc3c(=O)c2O)ccc1O" ?
>300 µM

----------
test system: H4IIE cells; format: cell-based; conditions: 24 hr
Each entry below lists one item and its recorded MTT TC50 value.

Worked examples, 5 compounds total:
compound	assayed_target	MTT TC50
Cc1ccc2oc(-c3ccc(O)c(O)c3)c(O)c(=O)c2c1 [CSMC-11, 6-methyl-3,3',4'-trihydroxy flavone]	H4IIE cells	>300 µM
CCc1ccc2oc(-c3ccc(O)c(O)c3)c(O)c(=O)c2c1 [CSMC-9, 6-ethyl-3,3',4'-trihydroxy flavone]	H4IIE cells	81 µM
CCOc1cc(-c2ccc(O)c(O)c2)nc2ccccc12	H4IIE cells	170 µM
O=c1cc(-c2cc(O)c(O)c(O)c2)oc2ccccc12 [CSMC-19, 3',4',5'-trihydroxyflavone]	H4IIE cells	>300 µM
CC[C@@]1(O)C(=O)OCc2c1cc1n(c2=O)Cc2cc3ccccc3nc2-1 [CAMPTOTHECIN, camptothecin, reference compound]	H4IIE cells	3.2 µM

Would you kindly share the measured MTT TC50 for O=c1c(O)c(-c2ccc(O)c(O)c2)oc2c1ccc1ccccc12 [CSMC-6, 3,3',4'-trihydroxy alpha-naphthoflavone] ?
71 µM

Would you kindly share the measured MTT TC50 for CCCc1ccc2oc(-c3ccc(O)c(O)c3)c(O)c(=O)c2c1 [CSMC-13, 6-propyl-3,3',4'-trihydroxy flavone] ?
83 µM

Would you kindly share the measured MTT TC50 for C=C(C)[C@H]1Cc2c(ccc3c2O[C@@H]2COc4cc(OC)c(OC)cc4[C@@H]2C3=O)O1 [ROTENONE, rotenone, reference compound] ?
0.19 µM

Would you kindly share the measured MTT TC50 for "COc1cc(-c2oc3cc(C)c(C)cc3c(=O)c2O)ccc1O" ?
74 µM

Would you kindly share the measured MTT TC50 for Cc1cc(O)c(C(=O)/C=C/c2ccc(O)c(O)c2)cc1C [CSMC-10, 4',5'-dimethyl-2',3,4-trihydroxychalcone] ?
83 µM

Would you kindly share the measured MTT TC50 for "COc1cc(-c2ccc(O)c(O)c2)nc2ccccc12" ?
293 µM

Would you kindly share the measured MTT TC50 for "CC(C)Oc1cc(-c2ccc(O)c(O)c2)nc2ccccc12" ?
298 µM

----------
Each entry below lists one item and its recorded Papp A→B at 60 min value.
system: P-glycoprotein (MDR1); test: BBB penetration; type: in vitro ADME, canine; settings: dog, MDCK-MDR1
State the value, then name its unit.

Worked examples, 2 compounds total:
compound	Papp A→B at 60 min
O=c1cc(-c2cc(O)c(O)c(O)c2)oc2ccccc12 [CSMC-19, 3',4',5'-trihydroxyflavone]	105 ×10⁻⁶ cm/s
O=c1c(O)c(-c2ccc(O)c(O)c2)oc2cc(O)ccc12 [Fisetin, 3,3',4',7-tetrahydroxyflavone, reference compound]	2.96 ×10⁻⁶ cm/s

Would you kindly share the measured Papp A→B at 60 min for Cc1ccc2oc(-c3ccc(O)c(O)c3)c(O)c(=O)c2c1 [CSMC-11, 6-methyl-3,3',4'-trihydroxy flavone] ?
6.67 ×10⁻⁶ cm/s

Would you kindly share the measured Papp A→B at 60 min for CCc1ccc2oc(-c3ccc(O)c(O)c3)c(O)c(=O)c2c1 [CSMC-9, 6-ethyl-3,3',4'-trihydroxy flavone] ?
40.9 ×10⁻⁶ cm/s

Would you kindly share the measured Papp A→B at 60 min for COc1cc(-c2oc3cc(C)c(C)cc3c(=O)c2O)ccc1O [CSMC-15] ?
4.08 ×10⁻⁶ cm/s

Would you kindly share the measured Papp A→B at 60 min for CCCc1ccc2oc(-c3ccc(O)c(O)c3)c(O)c(=O)c2c1 [CSMC-13, 6-propyl-3,3',4'-trihydroxy flavone] ?
0.1 ×10⁻⁶ cm/s

----------
Molecular target: CYP1A2 (Homo sapiens)
Sequence (P05177 1-516): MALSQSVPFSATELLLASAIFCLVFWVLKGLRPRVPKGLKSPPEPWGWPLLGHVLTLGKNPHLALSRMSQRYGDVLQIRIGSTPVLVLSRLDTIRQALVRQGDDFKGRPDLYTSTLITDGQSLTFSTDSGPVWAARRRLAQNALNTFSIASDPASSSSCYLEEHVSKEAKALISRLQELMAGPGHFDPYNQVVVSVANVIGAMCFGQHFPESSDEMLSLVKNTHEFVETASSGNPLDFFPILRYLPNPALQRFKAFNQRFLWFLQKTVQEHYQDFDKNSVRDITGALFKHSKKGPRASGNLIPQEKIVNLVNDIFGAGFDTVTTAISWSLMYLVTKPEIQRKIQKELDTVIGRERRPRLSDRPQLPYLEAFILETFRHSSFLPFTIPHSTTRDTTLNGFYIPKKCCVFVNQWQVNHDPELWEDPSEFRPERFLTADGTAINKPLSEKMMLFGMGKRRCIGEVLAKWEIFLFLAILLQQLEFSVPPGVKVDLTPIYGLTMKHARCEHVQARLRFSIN
experimental_endpoint: IC50 (µM)
// units = µM; emit number, no label

Worked examples, 3 molecules total:
molecule	IC50 / µM
CC(C)Oc1cc(-c2ccc(O)c(O)c2)nc2ccccc12	7.49
CCc1ccc2oc(-c3ccc(O)c(O)c3)c(O)c(=O)c2c1 [CSMC-9, 6-ethyl-3,3',4'-trihydroxy flavone]	11.6
CCOc1cc(-c2ccc(O)c(O)c2)nc2ccccc12	3.99

Would you kindly share the measured IC50 for "COc1cc(-c2ccc(O)c(O)c2)nc2ccccc12" ?
3.7

Would you kindly share the measured IC50 for Cc1cc(O)c(C(=O)/C=C/c2ccc(O)c(O)c2)cc1C [CSMC-10, 4',5'-dimethyl-2',3,4-trihydroxychalcone] ?
6.99

----------
system: Caspase 3; test: CeeTox apoptosis; format: cell-based, rat; details: H4IIE cells, dose at which the index was seen
experimental_endpoint: Caspase 3 Activity (Index/Dose): dose
Form rule: numeric answer, no unit written next to it.

Worked examples, 3 molecules total:
molecule	observed_measurement
Cc1cc(O)c(C(=O)/C=C/c2ccc(O)c(O)c2)cc1C [CSMC-10, 4',5'-dimethyl-2',3,4-trihydroxychalcone]	100
CC[C@@]1(O)C(=O)OCc2c1cc1n(c2=O)Cc2cc3ccccc3nc2-1 [CAMPTOTHECIN, camptothecin, reference compound]	100
O=c1cc(-c2cc(O)c(O)c(O)c2)oc2ccccc12 [CSMC-19, 3',4',5'-trihydroxyflavone]	300

Would you kindly share the measured Caspase 3 Activity (Index/Dose): dose for CCCc1ccc2oc(-c3ccc(O)c(O)c3)c(O)c(=O)c2c1 [CSMC-13, 6-propyl-3,3',4'-trihydroxy flavone] ?
100

Would you kindly share the measured Caspase 3 Activity (Index/Dose): dose for "COc1cc(-c2oc3cc(C)c(C)cc3c(=O)c2O)ccc1O" ?
300

Would you kindly share the measured Caspase 3 Activity (Index/Dose): dose for CCc1ccc2oc(-c3ccc(O)c(O)c3)c(O)c(=O)c2c1 [CSMC-9, 6-ethyl-3,3',4'-trihydroxy flavone] ?
300

Would you kindly share the measured Caspase 3 Activity (Index/Dose): dose for Cc1ccc2oc(-c3ccc(O)c(O)c3)c(O)c(=O)c2c1 [CSMC-11, 6-methyl-3,3',4'-trihydroxy flavone] ?
300
